- Target Of Assay: human KLK4 (human, UniProt Q9Y5K2 31-254, limits assumed)
- Sequence (Q9Y5K2 31-254 limits assumed): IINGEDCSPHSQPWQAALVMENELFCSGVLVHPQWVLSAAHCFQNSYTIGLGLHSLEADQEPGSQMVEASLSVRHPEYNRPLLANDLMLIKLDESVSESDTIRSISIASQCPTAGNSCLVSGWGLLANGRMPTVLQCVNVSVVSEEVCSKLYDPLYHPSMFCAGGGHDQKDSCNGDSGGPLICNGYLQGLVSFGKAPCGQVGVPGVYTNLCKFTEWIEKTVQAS
- Experiment Notes: column 8: KLK4 activity assay, 2 nM KLK4
Observed Property: IC50

Solved entries (count: 2):
8B7 (antibody, V domains shown) VH: QSVKESEGGLFKPTDNLTLTCTVSGFSLSNYGVTWVRQAPGNGLEYIGFIGSSGSAYYASWAKSRSTITRNTNLNTVTLKMTSLTAADTATYFCARDDVGGGKSLDIWGPGTLVTVSS VL: NIVMTQTPASVEVAVGGTVTIKCQASQSIGSYLSWYQQKPGQPPKLLIYDASNLASGVPSRFKGSGSGTQFTLSISDLECADAATYYCHQDYTSNNVDNTFGGGTEVVIK: > 100 nM
9H5 (antibody, V domains shown, Rabbit monoclonal; also called Chimeric 9H5; KLK5.9H5 (complex sample)) VH: QSVKESEGGLFKPTDNLTLTCTVSGFSLSSYGVSWVRQAPGNGLEYIGFIGSGGFAYYASWAKSRSTITRNTNLNTVTLKMTSLTAADTATYFCARDDVGGGKSLDIWGPGTVVTVSV VL: NIVMTQTPASVEAAVGGTVTINCQASQSISSYLSWYQQKSGQRPKLLIFSASTLASGVPSRFTGSGSGTQFTLTISDLQCADAATYYCHQDYTSSNVDNTFGGGTEVVVK: > 100 nM

Please report the recorded IC50 for 9B6 (antibody, V domains shown) VH: QSVKESEGGLFKPTDNLTLTCTVSGFSLSNYGVTWVRQAPGNGLEYIGFIGSGGSAYYASWAKSRSTITRNTNLNTVTLKMTSLTAADTATYFCARDDVGGGKSLDIWGPGTLVTVSS VL: NIVMTQTPASVEVAVGGTVVIKCQASQNIGDYLSWYQQKPGQRPKLLIYSASTLASGVPSRFKGSGSGTQFTLTISDLECADAATYYCHQDYTSNDVENTFGGGTEVVVK . > 100 nM
